The reported numbers originate from PubChem BioAssay.

inhibition values for the compounds below.
- experiment-description: growth suppression of yeast trafficking mutant, preliminary HTS, modulators of trafficking downstream of Golgi apparatus project, 1536-format plate, OD 615 nm (AID 637); note: test concentration not given here
- condition-notes: yeast transport mutant growth, absorbance 615 nm, 18 h; hits give high values
Form entry: value (%) — number only.

Guide cases for inhibition, answers given:
>  <compound>
COc1ccc(N2CCN(C(=O)CSc3ccccc3N)CC2)cc1

>  <measured-number>
-0.55

$$$$
>  <compound>
CN(CC(O)COc1ccc(OCC(O)CN(C)C2CCCCC2)cc1)C1CCCCC1 (centres undefined)

>  <measured-number>
4.6

$$$$
>  <compound>
CCOCCCNC(=O)C1CCCN(S(=O)(=O)CC)C1 (centres undefined)

>  <measured-number>
2.06

$$$$

Asked: Entry under review: O=C(CSc1nccn1Cc1ccccc1)Nc1nccs1 . Reported inhibition?
Given back: 1.48

Asked: Entry under review: O=C(C1CCN(c2nnc(-n3cccc3)s2)CC1)N1CCN(Cc2ccc3c(c2)OCO3)CC1 . Reported inhibition?
Given back: 1.67

Asked: Entry under review: CN=c1sc2ccccc2n1CC(O)COCc1ccco1 (centres undefined) . Reported inhibition?
Given back: 1.94
